- system: T1, soluble human EREG fragment having a mature EGF domain structure (R&D Systems cat. no. 1195-EP/CF) (human, UniProt O14944 63-108)
- T1 construct: bought; coated on ELISA plates; also called human epiregulin; recombinant human Epiregulin
- T1 sequence (O14944 63-108 limits assumed): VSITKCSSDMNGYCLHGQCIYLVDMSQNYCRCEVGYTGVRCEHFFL
- assayRemarks: competitive ELISA on coated soluble human EREG fragment

binder | binding result
H65-G1d/LB-k (antibody, human IgG1, kappa, V domains shown, also called H65-G1/LB-k) VH: QDQLVQSGAEVKKPGASVKVSCKASGFNIKDTYIQWVRQAPGQGLEWMGRIDPLFGNTKYVPKFQGRVTITADTSTNTAYMELSSLRSEDTAVYYCVRSGTLFDFWGQGTLVTVSS VL: DIQMTQSPSSLSASVGDRVTITCKASQDIHKYIAWYQQKPGQAPRLLIQYTSTLQPGVPSRFSGSGSGTDYTFTISSLQPEDIATYYCLQYDNLRTFGGGTKVEIKR | binds
H5-G1d/LB-k (antibody, human IgG1, kappa, V domains shown) VH: QDQLVQSGAEVKKPGASVKVSCKASGFNIKDTYIQWVRQAPGQGLEWMGRIDPLNGNTKYVPSFQGRVTITADTSTNTAYMELSSLRSEDTAVYYCVRSGTLFDFWGQGTLVTVSS VL: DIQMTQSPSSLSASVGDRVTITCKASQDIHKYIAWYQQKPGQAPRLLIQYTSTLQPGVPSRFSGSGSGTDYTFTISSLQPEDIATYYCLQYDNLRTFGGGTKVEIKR | binds
HY-G1d/L30-k (antibody, human IgG1, kappa, V domains shown, the text names only HY-G1d/L32-k as obtained; also called HY-G1/L30-k) VH: QDQLVQSGAEVKKPGASVKVSCKASGFNIKDTYIQWVRQAPGQGLEWMGRIDPLNGNTKYVPKFQGRVTITADTSTNTAYMELSSLRSEDTAVYYCVRSGTLFDFWGQGTLVTVSS VL: DIQMTQSPSSLSASVGDRVTITCKASQDIHKYIAWYQQKPGQAPRLLIQYTSTLQPGVPSRFSGSGSGTDYTFTISSLQPEDIATYYCLQYENLRTFGGGTKVEIKR | binds
